Header: log10(IC50) / Serine/threonine-protein kinase mTOR (Homo sapiens, UniProt P42345) / multiple publications
readout label: log10(IC50) (log10 of the value in nM)

compound | readout label | measured number
c1ccc(C2=NN(c3nc(N4CCOCC4)c4ccsc4n3)[C@@H](c3ccccc3)C2)cc1 (stereo in doubt) | log10(IC50) | 4.60
O=c1ccc2cnc3ccc(-c4ccc(O)cc4)cc3c2n1-c1ccc(N2CCNCC2)c(C(F)(F)F)c1 | log10(IC50) | 0.74
COc1ncc(-c2ccc3nccc(/C=C/C(=O)N4CCN(C)CC4)c3c2)cc1NS(=O)(=O)c1ccc(F)cc1F | log10(IC50) | 0.11
COc1ncc(-c2ccc3ncn(-c4ccc(OCCO)cc4)c3c2)cc1NS(=O)(=O)c1ccc(F)cc1F | log10(IC50) | 0.59
COc1ncc(-c2ccc3nccc(/C=C/C(=O)N(C)CCO)c3c2)cc1NS(=O)(=O)c1ccc(F)cc1F | log10(IC50) | 0.08
